target: human recombinant mGluR5 (Homo sapiens, UniProt P41594); construct: tetracycline removed 3-7 days before the assay; test: positive modulation of mGluR5, calcium based FLIPR assay in HEK 293 cells; details: HEK 293 cell line expressing human recombinant mGluR5; EC50 of the modulation of the glutamate response (glutamate approx. 5% basal stimulation); peak height of Ca release fluorescence signal
Sequence (P41594 21-1212): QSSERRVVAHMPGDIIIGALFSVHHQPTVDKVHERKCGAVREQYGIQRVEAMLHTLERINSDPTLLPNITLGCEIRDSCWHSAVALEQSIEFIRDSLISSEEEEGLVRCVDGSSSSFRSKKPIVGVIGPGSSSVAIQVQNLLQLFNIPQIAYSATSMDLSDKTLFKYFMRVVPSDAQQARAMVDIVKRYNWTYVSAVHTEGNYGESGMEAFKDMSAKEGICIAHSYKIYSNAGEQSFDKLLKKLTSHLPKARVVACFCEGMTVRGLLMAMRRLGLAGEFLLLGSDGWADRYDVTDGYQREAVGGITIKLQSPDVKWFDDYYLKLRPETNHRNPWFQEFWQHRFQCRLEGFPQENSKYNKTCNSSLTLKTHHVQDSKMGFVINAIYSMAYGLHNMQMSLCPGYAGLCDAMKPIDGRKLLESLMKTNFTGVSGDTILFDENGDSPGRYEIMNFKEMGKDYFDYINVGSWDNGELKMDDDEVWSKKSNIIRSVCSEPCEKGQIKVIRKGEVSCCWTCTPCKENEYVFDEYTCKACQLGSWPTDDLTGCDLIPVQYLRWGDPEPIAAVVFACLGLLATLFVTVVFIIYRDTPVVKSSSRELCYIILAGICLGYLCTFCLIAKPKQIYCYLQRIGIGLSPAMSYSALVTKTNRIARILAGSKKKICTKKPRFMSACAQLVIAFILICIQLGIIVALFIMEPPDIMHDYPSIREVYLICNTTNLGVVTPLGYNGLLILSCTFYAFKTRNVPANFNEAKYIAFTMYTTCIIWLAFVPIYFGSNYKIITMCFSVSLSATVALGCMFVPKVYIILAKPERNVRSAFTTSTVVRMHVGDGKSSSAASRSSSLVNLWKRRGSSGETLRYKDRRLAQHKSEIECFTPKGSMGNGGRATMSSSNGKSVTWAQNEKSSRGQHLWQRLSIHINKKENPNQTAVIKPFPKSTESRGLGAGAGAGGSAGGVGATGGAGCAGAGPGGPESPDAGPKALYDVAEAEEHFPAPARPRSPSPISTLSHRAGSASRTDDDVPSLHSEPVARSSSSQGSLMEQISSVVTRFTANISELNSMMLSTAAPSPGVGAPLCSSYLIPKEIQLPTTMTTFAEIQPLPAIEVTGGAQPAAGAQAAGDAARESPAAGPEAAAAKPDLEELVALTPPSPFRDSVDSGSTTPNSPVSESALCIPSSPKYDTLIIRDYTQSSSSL
In this section, each of the compounds is paired with its reported EC50.
Report only the number, with the unit nM understood.

N#Cc1ccccc1N1CCN(C(=O)Cn2nc(-c3ccc(F)cc3)nc2-c2ccc(F)cc2)CC1 : 1350
COc1ccnc(N2CCN(C(=O)Cn3nc(-c4ccc(F)c(C)c4)nc3C3CCCC(C)C3)CC2)c1 (stereo not drawn) : 918
COc1ccc(-c2nc(-c3ccccc3)n(CC(=O)N3CCN(c4cc(C)ccn4)CC3)n2)cc1OC : 162

Sample Cc1cc(-c2nc(-c3ccc(F)c(C)c3)n(CC(=O)N3CCN(c4ccccn4)CC3)n2)ccc1F ; EC50 observed: 54

Sample CCCc1nc(-c2ccc(OC(F)F)cc2)nn1CC(=O)N1CCN(c2ncccn2)CC1 ; EC50 observed: 249

Sample Cc1ccc(-c2nc(-c3ccccc3)nn2CC(=O)N2CCN(c3ncccn3)CC2)cc1 ; EC50 observed: 87
